Origin of measurements: ChEMBL document CHEMBL1130843

Record form. Attribute: pIC50. Fill in for each entry.
Tested on: Integrin alpha-IIb/beta-3 (Homo sapiens, UniProt P05106+P08514)
Sequence (P05106 27-788 limits assumed): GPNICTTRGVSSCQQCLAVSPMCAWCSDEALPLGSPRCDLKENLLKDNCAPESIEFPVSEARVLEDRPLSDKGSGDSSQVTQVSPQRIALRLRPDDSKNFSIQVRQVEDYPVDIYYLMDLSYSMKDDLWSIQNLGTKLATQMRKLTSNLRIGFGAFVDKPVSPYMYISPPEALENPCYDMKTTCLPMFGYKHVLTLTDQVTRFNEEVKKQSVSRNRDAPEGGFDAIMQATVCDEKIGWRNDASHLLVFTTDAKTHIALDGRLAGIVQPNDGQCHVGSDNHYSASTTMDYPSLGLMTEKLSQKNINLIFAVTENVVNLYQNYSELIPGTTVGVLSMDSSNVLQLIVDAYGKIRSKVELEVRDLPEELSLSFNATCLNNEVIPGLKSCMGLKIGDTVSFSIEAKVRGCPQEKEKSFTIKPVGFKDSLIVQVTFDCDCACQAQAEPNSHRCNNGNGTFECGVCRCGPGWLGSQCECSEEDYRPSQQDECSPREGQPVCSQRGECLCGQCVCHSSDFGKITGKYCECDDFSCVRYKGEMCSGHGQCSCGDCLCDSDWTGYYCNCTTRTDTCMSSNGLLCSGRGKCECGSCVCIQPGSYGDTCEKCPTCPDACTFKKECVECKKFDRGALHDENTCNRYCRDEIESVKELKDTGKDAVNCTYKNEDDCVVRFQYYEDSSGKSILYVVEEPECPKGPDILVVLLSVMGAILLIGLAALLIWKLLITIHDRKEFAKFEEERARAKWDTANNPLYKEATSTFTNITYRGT
Sequence (P08514 32-887 limits assumed): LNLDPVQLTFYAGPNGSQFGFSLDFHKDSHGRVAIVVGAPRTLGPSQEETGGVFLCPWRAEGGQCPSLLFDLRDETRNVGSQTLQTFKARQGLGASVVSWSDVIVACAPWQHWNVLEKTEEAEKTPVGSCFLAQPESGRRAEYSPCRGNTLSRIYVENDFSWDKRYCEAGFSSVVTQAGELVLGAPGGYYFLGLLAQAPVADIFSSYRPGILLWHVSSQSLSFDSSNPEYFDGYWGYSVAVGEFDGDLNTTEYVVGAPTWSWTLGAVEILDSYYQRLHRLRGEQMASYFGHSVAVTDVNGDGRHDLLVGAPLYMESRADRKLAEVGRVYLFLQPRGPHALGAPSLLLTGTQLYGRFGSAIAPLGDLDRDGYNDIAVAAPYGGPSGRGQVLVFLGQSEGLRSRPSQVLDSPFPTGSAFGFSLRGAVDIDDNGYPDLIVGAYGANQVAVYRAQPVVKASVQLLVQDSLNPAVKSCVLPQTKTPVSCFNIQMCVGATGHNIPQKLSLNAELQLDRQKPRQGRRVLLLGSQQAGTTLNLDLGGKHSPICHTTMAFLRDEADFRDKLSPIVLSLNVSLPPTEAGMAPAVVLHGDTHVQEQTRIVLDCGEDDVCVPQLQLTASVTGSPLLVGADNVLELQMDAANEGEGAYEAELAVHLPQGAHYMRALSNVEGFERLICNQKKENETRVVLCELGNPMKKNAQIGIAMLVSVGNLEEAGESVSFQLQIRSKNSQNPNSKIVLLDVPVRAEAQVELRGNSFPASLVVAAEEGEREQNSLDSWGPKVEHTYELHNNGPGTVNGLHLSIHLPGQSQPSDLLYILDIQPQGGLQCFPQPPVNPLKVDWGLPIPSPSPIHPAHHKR
Sequence (P08514 891-1039 limits assumed): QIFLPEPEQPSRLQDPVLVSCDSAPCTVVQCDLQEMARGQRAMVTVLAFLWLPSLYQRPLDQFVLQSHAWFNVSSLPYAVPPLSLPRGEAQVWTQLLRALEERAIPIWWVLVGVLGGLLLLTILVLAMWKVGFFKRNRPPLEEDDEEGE
Experimental protocol: Inhibition of fibrinogen binding to platelet glycoprotein alpha IIb beta-3 integrin in ELISA
pIC50 field: float, defined as -log10 of concentration (mol/L).

Look up pIC50: "N=C(N)c1ccc(N2CCN(Cc3ccc(CC(=O)O)cc3)CC2)cc1"
6.70

Request the reported pIC50 associated with "N=C(N)c1ccc(N2CCN(c3ccc(OCC(=O)O)cc3)CC2)cc1"
8.70

Item under review: "N=C(N)c1ccc(N2CCN(c3cccc(OCC(=O)O)c3)CC2)cc1" . Reported pIC50?
5.70

Query: pIC50; subject: "CC(C)(Oc1ccc(N2CCN(c3ccc(C(=N)N)cc3)CC2)cc1)C(=O)O"
6.00
